Please go through the items and note down their FACS binding signal (read-out unnamed).
- tested-on: T1, human claudin 18.2 (hCLDN18.2) (human)
- T1 construct: also called CLDN18 splice variant 2; HEK293-hCLDN18.2
- assay-comment: flow cytometry on HEK293-hCLDN18.2 cells; 0.2 ug/mL; not heat treated
One number for each entry.

Guide cases for FACS binding signal (read-out unnamed), answers given:
binder	FACS binding signal (read-out unnamed)
5-M9 human-mouse chimeric monoclonal antibody (antibody, human IgG1, V domains shown, Mouse V regions fused to human IgG1 (G1m17) heavy chain constant region and human kappa light chain constant region; also called 5-M9-A; Chi 5-M9) VH: QVQLKESGPVLVAPSQSLSITCTVSGFSLTTYGVQWVRQPPGKGLEWLGAIWAGGNTNYNSALMSRLSISKDNSKSQVFLKMNSLQTDDTAIYYCAKGGYGNAMDYWGQGTSVTVAS VL: DIVMTQSPSSLTVTAGERVTMSCKSSQSLLNSGNQKNYLTWYQQKSGQPPKLLIYWASTRESGVPDRFTGSGSGTDFTLTISSVQAEDLAVYYCQNDYFFPFTFGSGTKLEIK	83
h5M9V12 humanized antibody (h5M9 VHv4 / h5M9 VLv3) (antibody, human IgG1, kappa, V domains shown, Human IgG1 (G1m17) / kappa) VH: QVQLKESGPGLVAPSETLSITCTVSGFSLTTYGVQWVRQPPGKGLEWLGAIWAGGNTNYNSALMSRLTISKDNSKSQVSLKMSSLTAADTAIYYCAKGGYGNAMDYWGQGTLVTVSS VL: DIVMTQSPSSLAVSLGERVTMNCKSSQSLLNSGNQKNYLTWYQQKPGQPPKLLIYWASTRESGVPDRFTGSGSGTDFTLTISSVQAEDLAVYYCQNDYFFPFTFGSGTKLEIKR	103
h5M9V10 humanized antibody (h5M9 VHv4 / h5M9 VLv1) (antibody, human IgG1, kappa, V domains shown, Human IgG1 (G1m17) / kappa) VH: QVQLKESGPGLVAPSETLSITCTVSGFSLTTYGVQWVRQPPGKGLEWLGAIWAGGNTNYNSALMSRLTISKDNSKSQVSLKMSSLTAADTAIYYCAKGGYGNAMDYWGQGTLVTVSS VL: DIVMTQSPSSLAVSLGERATMNCKSSQSLLNSGNQKNYLTWYQQKPGQPPKLLIYWASTRESGVPDRFSGSGSGTDFTLTISSVQAEDLAVYYCQNDYFFPFTFGQGTKLEIKR	73.7

Next:
[in] Given h5M9v9 humanized antibody (h5M9 VHv3 / h5M9 VLv3) (antibody, V domains shown, Human IgG1 (G1m17) heavy and human kappa light constant regions) VH: QVQLKESGPGLVAPSETLSITCTVSGFSLTTYGVQWVRQPPGKGLEWLGAIWAGGNTNYNSALMSRLTISKDNSKSQVSLKMSSVTAADTAIYYCAKGGYGNAMDYWGQGTLVTVSS VL: DIVMTQSPSSLAVSLGERVTMNCKSSQSLLNSGNQKNYLTWYQQKPGQPPKLLIYWASTRESGVPDRFTGSGSGTDFTLTISSVQAEDLAVYYCQNDYFFPFTFGSGTKLEIK , respond with its FACS binding signal (read-out unnamed).
[out] 66.8
